assay-remarks: total protein half-life in vivo (active degradation + dilution); higher = more stable protein
run-parameters: wild type E. coli NCM3722; growth: C-lim chemostat; doubling time 6 h
parameter-measured: total protein half-life in vivo (h)
Record the value in h, omitting the unit from your answer.

Reported total protein half-life in vivo for MNDAIPRPQAKTRKALTPLLEIRNLTKSYDGQHAVDDVSLTIYKGEIFALLGASGCGKSTLLRMLAGFEQPSAGQIMLDGVDLSQVPPYLRPINMMFQSYALFPHMTVEQNIAFGLKQDKLPKAEIASRVNEMLGLVHMQEFAKRKPHQLSGGQRQRVALARSLAKRPKLLLLDEPMGALDKKLRDRMQLEVVDILERVGVTCVMVTHDQEEAMTMAGRIAIMNRGKFVQIGEPEEIYEHPTTRYSAEFIGSVNVFEGVLKERQEDGLVLDSPGLVHPLKVDADASVVDNVPVHVALRPEKIMLCEEPPANGCNFAVGEVIHIAYLGDLSVYHVRLKSGQMISAQLQNAHRHRKGLPTWGDEVRLCWEVDSCVVLTV : what is it? 5.92

Next sequence up: MSETAKKVIVGMSGGVDSSVSAWLLQQQGYQVEGLFMKNWEEDDGEEYCTAAADLADAQAVCDKLGIELHTVNFAAEYWDNVFELFLAEYKAGRTPNPDILCNKEIKFKAFLEFAAEDLGADYIATGHYVRRADVDGKSRLLRGLDSNKDQSYFLYTLSHEQIAQSLFPVGELEKPQVRKIAEDLGLVTAKKKDSTGICFIGERKFREFLGRYLPAQPGKIITVDGDEIGEHQGLMYHTLGQRKGLGIGGTKEGTEEPWYVVDKDVENNILVVAQGHEHPRLMSVGLIAQQLHWVDREPFTGTMRCTVKTRYRQTDIPCTVKALDDDRIEVIFDEPVAAVTPGQSAVFYNGEVCLGGGIIEQRLPLPV 7.28
